Molecular target: RhlR (Pseudomonas aeruginosa, UniProt P54292)
Construct: expressed in transfected cells; host or cells: E. coli DH5α carrying pECP61.5
Sequence (P54292 whole entry): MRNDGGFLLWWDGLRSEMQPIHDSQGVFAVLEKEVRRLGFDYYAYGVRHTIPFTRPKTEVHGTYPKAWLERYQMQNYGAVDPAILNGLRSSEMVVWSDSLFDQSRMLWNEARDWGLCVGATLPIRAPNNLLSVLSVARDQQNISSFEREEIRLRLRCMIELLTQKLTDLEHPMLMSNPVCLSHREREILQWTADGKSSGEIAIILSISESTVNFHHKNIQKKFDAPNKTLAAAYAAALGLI
Experiment: E. coli RhlR bioreporter (pECP61.5, rhlA-lacZ), β-galactosidase readout
Assay type: cell-based
Details: IC50, RhlR reporter, competed against C4-HSL
pIC50: −log10 of the molar value.
EXPERIMENTAL_ENDPOINT: pIC50

Task: Could you tell me which pIC50 is on file for O=C(O)c1ccccc1O [Salicylic acid, reference compound] ?
Result: ~2.00

----------
Target: RhlR (Pseudomonas aeruginosa)
Construct: expressed in transfected cells; host or cells: E. coli DH5α carrying pECP61.5
Experiment: E. coli RhlR bioreporter (pECP61.5, rhlA-lacZ), β-galactosidase readout
Type: cell-based
Conditions: IC50 ± CI, RhlR reporter, competed against 400 nM C4-HSL; 95% confidence interval in parentheses
pIC50: −log10 of the molar value.
Given measured pIC50, output label 1 if it is greater than or equal to 3 and label 0 if not.

Solved entries:
COMPOUND	CLASS_ASSIGNMENT
COc1cccc(C=O)c1O	label 1
COc1ccc(C=O)c(O)c1 [2-hydroxy-4-methoxybenzaldehyde]	label 1
O=C(O)c1ccccc1O [Salicylic acid, reference compound]	label 0

Consider the additional compound presented here.
Task: Does pIC50 meet or surpass 3 for O=C/C=C/c1ccccc1 ?
Result: label 0
